Recorded values, source PubChem BioAssay (NCI).

Parameter: TGI. Scope: all listed entries.
tested on: U251 CNS; assay: NCI tumour cell line growth inhibition, 48 h
Starred links: 1 amine or outer side, 2 acyl side, 3 side chain; linkers in the order of their positions; H or OH if unused. Positions of bridges follow the written chain, without caps; N, C: chain ends. Non-standard residues stand in square brackets, D forms with d. Residues, ends and D or L forms follow the SMILES beside them. Chains are numbered I, II in the order given. Actinocin(9to1) = Cc1c2oc3c(C)ccc(C(=O)[*:1])c3nc-2c(C(=O)[*:2])c(N)c1=O; NMeY = CN[CH](Cc1ccc(O)cc1)C(=O)O; Sar = CNCC(=O)O

Some molecules with known TGI results, for comparison:
Nc1ccc2c(c1)C(=O)N1CCC[C@H]1C(=O)N2 : > 100 µM
CCCC(=O)NC(NC1CCCCC1)(C(=O)OCC)C(F)(F)F (stereo not given) : > 100 µM
Cc1c2oc3c(C)ccc(C(=O)NC4C(=O)NC(C(C)C)C(=O)N5CCCC5C(=O)N(C)CC(=O)N(C)C(Cc5ccc(O)cc5)C(=O)OC4C)c3nc-2c(C(=O)NC2C(=O)NC(C(C)C)C(=O)N3CCCC3C(=O)N(C)CC(=O)N(C)C(Cc3ccc(O)cc3)C(=O)OC2C)c(N)c1=O (stereo not given) (I: TVP[Sar][NMeY] / II: TVP[Sar][NMeY]; ester I:1-I:C, II:1-II:C; linker I:N-II:N via Actinocin(9to1); configuration not given here) : > 1 µM
Cc1ccc(S(=O)(=O)N(C=O)N=C2CCN(Cc3ccccc3)CC2)cc1 : > 100 µM

From here, focus on the item given below.
Qu. Let me know recorded TGI for O=c1[nH]cnc2c1cnn2Cc1cn(CCCCO)nn1 , thanks.
Ans. > 100 µM

###

tested on: HOP-62 NSCLC; assay: NCI tumour cell line growth inhibition, 48 h
Assay endpoint: TGI

# annotated cases, reported TGI shown
C/C=C/C(CC(O)(C(F)(F)F)C(F)(F)F)=N/NC(N)=S : > 10 µM
Nc1ccc([N+](=O)[O-])cc1N=C/C=C/c1ccccc1 : > 100 µM

Qu. Provide TGI value for the following molecule: O=c1[nH]cnc2c1cnn2Cc1cn(CCCCO)nn1
Ans. > 100 µM

Qu. Give a short answer stating reported TGI for Cc1cc(Cl)cc(OCCn2cc(F)cn2)c1-c1nc(N)nc2c1CN(C(=O)NCC(C)(F)F)C2 .
Ans. > 100 µM

Qu. Supply recorded TGI for CCCCCCCCCCCCCC(=O)OCC(C[As](=O)(O)O)OC(=O)CCCCCCCCCCCCC (configuration not stated) here.
Ans. > 100 µM

Qu. Report TGI, nothing else, for this molecule: CC1(C)OC(C(=O)Nc2cc3c4ccccc4ccc3c3ccccc23)C(C(=O)N2CCCCC2)O1 (configuration not stated)
Ans. > 100 µM

Qu. Return value of TGI for input N#Cc1n[nH]n(-c2ccc(Br)cc2)c1=O , no commentary.
Ans. > 100 µM

Qu. Tell me its TGI given O=C1/C(=C/c2ccc(Br)s2)NC(=S)N1c1ccccc1 as the entry.
Ans. > 100 µM

Qu. Report TGI, nothing else, for this molecule: Cc1ccc(S(=O)(=O)N(C=O)N=C2CCN(Cc3ccccc3)CC2)cc1
Ans. > 100 µM

Qu. Let me know recorded TGI for CCC12CCCN(Cc3ccccc3)C1c1c(n(C)c3ccccc13)CC2 (configuration not stated) , thanks.
Ans. > 253 µM

Qu. Let me know recorded TGI for O=S(=O)(O)CCCc1cccc2ccccc12 , thanks.
Ans. > 100 µM

Qu. Give reported TGI value for CCO/C(O)=C(/C(=N)N1CCOCC1)C(=O)Nc1ccc(F)cc1
Ans. > 100 µM

###

test system: A498 renal; test: NCI tumour cell line growth inhibition, 48 h
Assay endpoint: TGI

Cc1ccc(-c2c(C#N)c(-c3ccc(C)cc3)n(NS(=O)(=O)c3ccccc3)c(=O)c2C#N)cc1 : > 100 µM
C=C(Cl)C(=CCl)CCC(Br)C(C)(C)Cl (mixture of isomers) : > 10 µM
O=CCC1CCCCC1 : > 100 µM
O=C(/C=C/c1ccccc1)CCC1C(=O)c2ccccc2C1=O : > 100 µM
O=C(Nc1ccc2ncccc2c1)Nc1ccc2ncccc2c1 : > 100 µM

Qu. Given NC(=S)N/N=C/C(=O)O , report its TGI on A498 renal.
Ans. > 100 µM

Qu. Tell me TGI of NS(=O)(=O)c1ccc(/C=C/c2ccc(O)c(O)c2)cc1 when tested on A498 renal.
Ans. > 100 µM

Qu. Provide TGI, recorded with A498 renal, of COc1cccc(CCNC(=O)Cc2ccccc2CCO)c1
Ans. > 100 µM

Qu. Given O=c1oc2ccc3ccccc3c2cc1-c1nc2ccccc2s1 , report its TGI on A498 renal.
Ans. > 100 µM

Qu. Quote TGI with test system A498 renal for CCN1CCN(C(=O)[C@@]2(C)CC[C@]3(C)CC[C@]4(C)C(=CC(=O)[C@@H]5[C@@]6(C)CC[C@H](OC7C[C@@H](O)[C@@H](O)C(C)O7)C(C)(C)[C@@H]6CC[C@]54C)[C@@H]3C2)CC1 (stereo partly specified)
Ans. 17 µM

Qu. Provide TGI, system A498 renal, entry Nc1c(C(=O)O)nnc2ccc(Cl)cc12
Ans. > 100 µM

Qu. Report measured TGI on A498 renal; entry: O=C1COc2cccnc2N1CCCCO
Ans. > 100 µM

Qu. State TGI on A498 renal. Entry: COc1cc(C2C3C=CC=C4CC=CC(=C43)C3CCC(=O)N32)cc(OC)c1OC (stereo unspecified)
Ans. > 100 µM

###

tested on: NCI-H460 lung; assay: NCI tumour cell line growth inhibition, 48 h
Listed here are molecules together with their documented TGI.

COc1ccc(/C=C2\CCNC2=O)cc1 : > 100 µM
CO/N=C(\C(=O)OC(=NC1CCCCC1)NC1CCCCC1)c1csc(NC(c2ccccc2)(c2ccccc2)c2ccccc2)n1 : > 10 µM
O=C1c2ccccc2C(=O)c2c(NCC(O)CO)ccc(NCC(O)CO)c21 (stereo not drawn) : > 100 µM
N.N.N.N.O=C([O-])CCl.O=C([O-])CCl.[Co+3].[O-][Cl+3]([O-])([O-])[O-] : > 100 µM
CCOc1ncn(-c2ccc(NC(=S)Nc3ncccn3)cc2)n1 : > 100 µM
CCOC(=O)c1ccc(NC(=O)Oc2ccc3c(C)cc(=O)oc3c2)cc1 : > 100 µM
CCCCCCCCCCCCCC(=O)OCC(C[As](=O)(O)O)OC(=O)CCCCCCCCCCCCC (stereo not drawn) : > 100 µM
O=C(N/N=C(\c1ccccc1)c1ccccn1)NC1CCCCC1 : > 100 µM

Qu. Assign TGI to the following record: O=c1[nH]cnc2c1cnn2Cc1cn(CCCCO)nn1
Ans. > 100 µM

Qu. Read the entry O=C1Sc2cc3ccccc3cc2C(=O)Sc2ccc(Br)cc21 and write its reported TGI.
Ans. 24.2 µM

Qu. Tell me its TGI given COc1cccc(C2CC(C)(O)Oc3cc4c(cc32)OCO4)c1O (stereo not drawn) as the entry.
Ans. > 92.7 µM

Qu. Give me measured TGI, please, for this molecule: CCn1c(-c2ccccc2)cs/c1=N\C(P(=O)(O)O)P(=O)(O)O
Ans. > 100 µM

Qu. Input [N-]=[N+]=NC1(Cc2ccccc2)C(=O)c2cccc3c2N(CCC3)C1=O (stereo not drawn) , output reported TGI.
Ans. > 100 µM

Qu. Give the measured TGI for COC(=O)C(C(=O)c1ccccc1)C(C(=O)C(=O)Nc1ccc(OC)cc1OC)C(=O)C(=O)c1ccc(C)cc1 (stereo not drawn)
Ans. > 100 µM

Qu. Respond only with TGI recorded for CNCc1ccccc1-c1csc([C@@H](C)Nc2nc(C)nc3cc(OC)c(OC)cc23)c1
Ans. 4.16 µM

###

Measured TGI values are reported for all entries that follow.
tested on: K-562 leukemia; test: NCI tumour cell line growth inhibition, 48 h

Qu. State, in one line, measured TGI of Cc1ccc2c(c1)C(=S)N1CSCC1c1nncn1-2 (stereo not given)
Ans. > 100 µM

Qu. Supply TGI value. Item: CCOC(=O)C(C#N)C1=CC(=O)C(=O)c2ccc(OC)cc21 (stereo not given)
Ans. > 100 µM

Qu. Given CC(=O)Nc1ccc(S(=O)(=O)N2C(=O)CCC2C(=O)Nc2ccc(Br)cc2)cc1 (stereo not given) , respond with its TGI.
Ans. 10.7 µM

Qu. Let me know recorded TGI for COC(=O)c1ccc2c(c1)nc(NC(=O)c1ccccc1)n2CCCc1ccccc1 , thanks.
Ans. > 100 µM

Qu. Please give the documented TGI of O=c1oc2ccccc2cc1-c1cc2ccccn2c1
Ans. > 100 µM
